System: NCI-H460 lung
TEST_DETAILS: NCI-60 one-dose screen, 48 h
CONDITION_SET: 10 µM
This is part of a sample that, as a whole, favours compounds with a hit. Of some 83,000 tested, about 20% had one in any assay. Activity calls are given as the source filed them. Rule for the calls: active = growth percent below 10; inactive = the rest.
Select the matching outcome among active, inactive

Sample answers from the record:
Cc1cc2c(c(O)c1Br)-c1ncoc1C(=O)[C@]1(C)CC[C@H](C(C)C)[C@H]21 : inactive
O=C(c1ccc(O)cc1)C1[C@H](c2ccc(Br)cc2)[C@@H](c2ccccc2)NC12C(=O)Nc1ccccc12 (some centres undefined) : active
CN(C)CCNC(=O)OCCCCOc1cc(O)c2c(=O)cc(-c3ccccc3)oc2c1 : active
Cc1noc2c(Cc3ccc([N+](=O)[O-])cc3)nn(CC(=O)N/N=C/c3ccc(Br)cc3)c(=O)c12 : inactive
N#Cc1c(NC(=O)c2ccc(C(F)(F)F)cc2)sc2c1CCC(=O)C2 : active

Challenge: How did this test come out for Cc1cc(=O)oc2cc(OCCCCOc3ccc(/C=C/C(=O)Nc4ccc(F)c(Cl)c4)cc3)ccc12 ?
Response given: inactive

Challenge: How did this test come out for COc1ccc(C(=O)Nc2sc3c(c2C#N)CCC(=O)C3)cc1C(F)(F)F ?
Response given: active

---

Test system: EKVX NSCLC
TEST_DETAILS: NCI-60 one-dose screen, 48 h (100 = growth as untreated, 0 = no growth, -100 = all killed)
CONDITION_SET: 10 µM
This is part of a sample that, as a whole, favours compounds with a hit. Of some 83,000 tested, about 20% had one in any assay. Activity calls are given as the source filed them. How the source made its calls: active means growth percent below 10; inactive means the rest.
Task for the reader: assign each of the following compounds its reported growth.

Answered examples (4):
COc1ccc(CN2[C@H](C(=O)NCCCCCCC(=O)NO)Cc3c([nH]c4ccccc34)[C@H]2C2CC2)cc1 : 16.8% (inactive)
CC(C)(C)c1ccc(NCc2cn(-c3ccc(C(=O)O)cc3)nc2-c2ccc(C#N)cc2)cc1 : -36.7% (active)
O=C(Nc1ccc(I)cc1F)c1cc(-c2ccc(F)cc2F)ccc1O : 0.815% (active)
COc1ccc(-c2nc(-c3ccccc3)c(-c3ccccc3)n2-c2ccc(S(=O)(=O)Nc3ncccn3)cc2)cc1OC : 63.6% (inactive)

API: the following record is the query input.
GET /values?item= CCOc1ccc(/C=N/NC(=O)Cn2nc(Cc3ccc([N+](=O)[O-])cc3)c3onc(C)c3c2=O)cc1 &system= EKVX NSCLC returns growth: 16.3% (inactive)

---

Test system: SK-MEL-2 melanoma
TEST_DETAILS: NCI-60 one-dose screen, 48 h (100 = growth as untreated, 0 = no growth, -100 = all killed)
CONDITION_SET: 10 µM
Compounds without any hit were thinned out: in the full panel of roughly 83,000, 20% have a hit.
Task for the reader: assign each of the following compounds its reported growth.
Numbers only, in %.

Answered examples (2):
CC(=O)NCC1=C(C)C=C2C(=O)[C@](C)(O)C3(CC3)C(C)=C21 : -74.7
Cc1ccc(/C(CSc2nnc(-c3c[nH]c4ccccc34)n2-c2ccccc2)=N/O)cc1 : 62.7

Batch lookup, growth per entry.
1. CC(=C(c1ccc(OCCN2CCCCC2)cc1)c1ccc(OCCN2CCCCC2)cc1)c1ccccc1
2. CN1CCN(c2ccc(C(=O)/C=C/c3ccc(C#N)cc3)cc2)CC1
3. Cc1nc(Nc2nc(C)c3ccc(OCCN4CCOCC4)cc3n2)[nH]c(=O)c1C
4. COc1ccc(C(=O)CSc2nnc(-c3c[nH]c4ccccc34)n2-c2ccccc2)cc1

Response given:
[20.2, 104, -90.3, 72]
